- Test system: Staphylococcus aureus
- ASSAY INFO: Antibacterial activity against quinolone-resistant Staphylococcus aureus isolate CCARM 3505 after 24 hrs by two-fold serial dilution method
- Type: functional
- COND: isolate CCARM 3505, 24 h

MOLECULE	TARGET DESC	COMPARISON SIGN	MIC, µg/mL
CN(C)C1=NC(c2ccc(/C=C/C(=O)c3ccc(Br)cc3)cc2)N=C(N)N1 (stereo unspecified)	Staphylococcus aureus	=	8
CN(C)C1=NC(c2ccc(OCc3ccccc3)cc2)N=C(N)N1 (stereo unspecified)	Staphylococcus aureus	=	32
Cc1ccc(C(=O)/C=C/c2ccc(C3N=C(N)NC(N(C)C)=N3)cc2)c(C)c1 (stereo unspecified)	Staphylococcus aureus	=	32
CN(C)C1=NC(c2ccc3cc(OCC(=O)c4ccc(Br)cc4)ccc3c2)N=C(N)N1 (stereo unspecified)	Staphylococcus aureus	=	4
COc1ccccc1C(=O)/C=C/c1ccc(C2N=C(N)NC(N(C)C)=N2)cc1 (stereo unspecified)	Staphylococcus aureus	=	64
CN(C)C1=NC(c2ccc3cc(OCc4ccc(Br)cc4)ccc3c2)N=C(N)N1 (stereo unspecified)	Staphylococcus aureus	=	1
COc1cccc(C(=O)/C=C/c2ccc(C3N=C(N)NC(N(C)C)=N3)cc2)c1 (stereo unspecified)	Staphylococcus aureus	=	16
CN(C)C1=NC(c2ccc3cc(OCc4ccccc4Cl)ccc3c2)N=C(N)N1 (stereo unspecified)	Staphylococcus aureus	=	1
CN(C)C1=NC(c2ccc3cc(OCc4ccccc4F)ccc3c2)N=C(N)N1 (stereo unspecified)	Staphylococcus aureus	=	4
COc1c(N2C[C@@H]3CCCN[C@@H]3C2)c(F)cc2c(=O)c(C(=O)O)cn(C3CC3)c12 [MOXIFLOXACIN]	Staphylococcus aureus	=	1
Cc1ccc(COc2ccc3cc(C4N=C(N)NC(N(C)C)=N4)ccc3c2)cc1 (stereo unspecified)	Staphylococcus aureus	=	2
CN(C)C1=NC(c2ccc3cc(OCc4ccccc4)ccc3c2)N=C(N)N1 (stereo unspecified)	Staphylococcus aureus	=	8
CN(C)C1=NC(c2ccc(/C=C/C(=O)c3ccc(Cl)cc3Cl)cc2)N=C(N)N1 (stereo unspecified)	Staphylococcus aureus	=	8
CN(C)C1=NC(c2ccc(/C=C/C(=O)c3ccccc3)cc2)N=C(N)N1 (stereo unspecified)	Staphylococcus aureus	=	32
CN(C)C1=NC(c2ccc(OCC(=O)c3ccc(Br)cc3)cc2)N=C(N)N1 (stereo unspecified)	Staphylococcus aureus	=	64
CN(C)C1=NC(c2ccc(OCC(=O)c3ccccc3)cc2)N=C(N)N1 (stereo unspecified)	Staphylococcus aureus	>	64
Cc1ccc(COc2ccc(C3N=C(N)NC(N(C)C)=N3)cc2)cc1 (stereo unspecified)	Staphylococcus aureus	=	32
CN(C)C1=NC(c2ccc3cc(OCc4ccc(Cl)cc4Cl)ccc3c2)N=C(N)N1 (stereo unspecified)	Staphylococcus aureus	=	0.5
CN(C)C1=NC(c2ccc(/C=C/C(=O)c3ccc(F)cc3)cc2)N=C(N)N1 (stereo unspecified)	Staphylococcus aureus	=	32
CN(C)C1=NC(c2ccc3cc(OCC(=O)c4ccccc4)ccc3c2)N=C(N)N1 (stereo unspecified)	Staphylococcus aureus	=	32
CN(C)C1=NC(c2ccc(OCc3ccc(F)cc3)cc2)N=C(N)N1 (stereo unspecified)	Staphylococcus aureus	=	64
CN(C)C1=NC(c2ccc3cc(OCc4ccc(Cl)cc4)ccc3c2)N=C(N)N1 (stereo unspecified)	Staphylococcus aureus	=	1
CN(C)C1=NC(c2ccc3cc(OCc4cccc(Cl)c4)ccc3c2)N=C(N)N1 (stereo unspecified)	Staphylococcus aureus	=	1
COc1c(N2CCNC(C)C2)c(F)cc2c(=O)c(C(=O)O)cn(C3CC3)c12 (stereo unspecified) [GATIFLOXACIN]	Staphylococcus aureus	=	8
CN(C)C1=NC(c2ccc(/C=C/C(=O)c3ccccc3Br)cc2)N=C(N)N1 (stereo unspecified)	Staphylococcus aureus	=	32
Cc1ccc(C(=O)/C=C/c2ccc(C3N=C(N)NC(N(C)C)=N3)cc2)cc1 (stereo unspecified)	Staphylococcus aureus	=	16
